- TESTED ON: truncated human beta-secretase (residues 1-458, His6-tagged at the C-terminus) (Homo sapiens)
- Construct: truncated human beta-secretase (residues 1-458, His6-tagged at the C-terminus); His6 (C); made in house; host or cells: insect cells D. melanogaster S2 (baculovirus expression system (so in the source))
- PROTOCOL TEXT: BACE fluorescence quench assay
- Type: biochemical
- APPLIED CONDITIONS: in vitro enzyme activity, BACE fluorescence assay, pH 4.5; read-out: IC50
pIC50: −log10 of the molar value.
pIC50: recorded values

Request: What measured pIC50 goes with CN1OC2(CC(C3CCCOC3)Oc3ccc(-c4cccc(F)c4)cc32)N=C1N (stereo not shown) ?
Result: 6.00 to 6.30

Request: Moving on to the next molecule: CC(C)=CC(CCO)[C@@H]1C[C@@]2(N=C(N)N(C)O2)c2cc(-c3cc(F)cc(F)c3)ccc2O1 (stereo partly shown)
Result: 5.00 to 5.30

Request: Moving on to the next molecule: CN1OC2(C[C@@]3(CC4CCC3OC4)Oc3ccc(-c4cccc(C#N)c4)cc32)N=C1N (single isomer, unassigned)
Result: 5.30 to 6.00

Request: Moving on to the next molecule: CN1OC2(C[C@@H](C3CCCOC3)Oc3ccc(-c4cccnc4F)cc32)N=C1N (stereo partly shown) [Compound 89a]
Result: 6.30 to 7.00

Request: Moving on to the next molecule: CN1OC2(CC(c3ccc(OC(F)(F)F)cc3)Oc3ccc(-c4cccc(C#N)c4)cc32)N=C1N (stereo not shown)
Result: 4.30 to 5.00

Request: Moving on to the next molecule: CN1C(=O)C2(CC3(CCCC(C(F)(F)F)C3)Oc3ccc(-c4cccc(C#N)c4)cc32)N=C1N (stereo not shown)
Result: 5.30 to 6.00

---

- TESTED ON: truncated human beta-secretase (residues 1-458, His6-tagged at the C-terminus) (Homo sapiens, UniProt P56817)
- Construct: truncated human beta-secretase (residues 1-458, His6-tagged at the C-terminus); His6 (C); made in house; host or cells: insect cells D. melanogaster S2 (baculovirus expression system (so in the source))
- Sequence (P56817 22-458): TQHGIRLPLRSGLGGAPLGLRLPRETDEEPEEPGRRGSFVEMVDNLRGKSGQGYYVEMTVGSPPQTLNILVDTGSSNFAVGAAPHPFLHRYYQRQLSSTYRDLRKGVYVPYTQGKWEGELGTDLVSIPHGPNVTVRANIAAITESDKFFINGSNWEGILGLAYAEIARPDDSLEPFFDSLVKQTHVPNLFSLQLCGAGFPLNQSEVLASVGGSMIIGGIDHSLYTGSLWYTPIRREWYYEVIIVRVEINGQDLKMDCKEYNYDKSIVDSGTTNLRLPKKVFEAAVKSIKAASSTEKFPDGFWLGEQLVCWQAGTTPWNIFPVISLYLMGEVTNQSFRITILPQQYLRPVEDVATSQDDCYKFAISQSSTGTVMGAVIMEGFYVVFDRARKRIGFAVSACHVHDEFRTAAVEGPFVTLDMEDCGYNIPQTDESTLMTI
- PROTOCOL TEXT: BACE fluorescence quench assay
- Type: biochemical
- APPLIED CONDITIONS: in vitro enzyme activity, BACE fluorescence assay, pH 4.5; read-out: IC50
pIC50: −log10 of the molar value.
MEASURED PROPERTY: pIC50

compound="CN1C(=O)C2(CC(c3ccc(Cl)cc3)Oc3ccc(-c4cccc(C#N)c4)cc32)N=C1N (stereo not drawn)" result="6.30 to 7.00"
compound="CN1C(=O)C2(C[C@@H](C3CCCc4ccccc43)Oc3ccc(-c4cccc(C#N)c4)cc32)N=C1N (stereo in doubt)" result="6.30 to 7.00"
compound="CN1O[C@]2(C[C@@H]([C@@H]3CCCOC3)Oc3ccc(-c4cc(F)cc(F)c4)cc32)N=C1N (racemic)" result="6.30 to 7.00"

Request: What measured pIC50 goes with CCOc1ccc(Cl)cc1-c1ccc2c(c1)[C@]1(C[C@]3(CCCOC3)O2)N=C(N)N(C)C1=O ?
Result: 6.30 to 7.00

---

- TESTED ON: truncated human beta-secretase (residues 1-458, His6-tagged at the C-terminus) (Homo sapiens, UniProt P56817)
- Construct: truncated human beta-secretase (residues 1-458, His6-tagged at the C-terminus); His6 (C); made in house; host or cells: insect cells D. melanogaster S2 (baculovirus expression system (so in the source))
- PROTOCOL TEXT: BACE fluorescence quench assay
- Type: biochemical
- APPLIED CONDITIONS: in vitro enzyme activity, BACE fluorescence assay, pH 4.5; read-out: IC50
pIC50: −log10 of the molar value.
pIC50: recorded values

Would you please look over these solved cases?
compound="CC1CC[C@]2(CO1)C[C@]1(N=C(N)N(C)O1)c1cc(-c3cc(Cl)cc(Cl)c3)ccc1O2 (stereo partly drawn)" result="6.00 to 6.30"
compound="CN1C(=O)C2(CC(c3cccc(Cl)c3)Oc3ccc(-c4cccc(C#N)c4)cc32)N=C1N (stereo not drawn)" result="6.00 to 6.30"
compound="CN1OC2(CC3(COC(C)(C)OC3)Oc3ccc(-c4cccc(C#N)c4)cc32)N=C1N (stereo not drawn)" result="5.00 to 5.30"
compound="CN1C(=O)C2(CC(c3ccc(Cl)cc3)Oc3ccc(Br)cc32)N=C1N (stereo not drawn)" result="4.30 to 5.00"
compound=CN1C(=O)[C@@]2(C[C@@]3(CCCOC3)Oc3ccc(-c4cc(F)cc(F)c4F)cc32)N=C1N result="6.00 to 6.30"
compound="CCCCNC(=O)c1cccc(-c2ccc3c(c2)[C@]2(C[C@@H](c4ccccc4)O3)N=C(N)N(C)C2=O)c1 [Compound 55b]" result="4.30 to 5.00"
compound="CN1C(=O)C2(CC(C)(c3ccccc3)Oc3ccc(-c4cccc(C#N)c4)cc32)N=C1N (stereo not drawn)" result="5.30 to 6.00"
compound="COCCCOc1cccc(-c2ccc3c(c2)C2(CC4(CCCOC4)O3)N=C(N)N(C)O2)c1 (stereo not drawn)" result="4.30 to 5.00"

Request: What measured pIC50 goes with CN1OC2(CC(c3ccccc3)Oc3ccc(-c4cccc(C#N)c4)cc32)N=C1N (stereo not drawn) ?
Result: 5.30 to 6.00

Request: Moving on to the next compound: CN1C(=O)[C@@]2(C[C@@]3(CCCOC3)Oc3ccc(-c4cc(CO)ccc4F)cc32)N=C1N
Result: 5.00 to 5.30

Request: Moving on to the next compound: CN1OC2(CC(C3CC(C)(C)OC(C)(C)C3)Oc3ccc(-c4cccc(C#N)c4)cc32)N=C1N (stereo not drawn)
Result: 6.30 to 7.00

Request: Moving on to the next compound: COc1cc(OC)cc(-c2ccc3c(c2)[C@]2(C[C@@]4(CCCOC4)O3)N=C(N)N(C)C2=O)c1
Result: 6.30 to 7.00

Request: Moving on to the next compound: CN1OC2(CC(C3CCOC(C)(C)C3)Oc3ccc(-c4cc(C#N)ccc4C(F)(F)F)cc32)N=C1N (stereo not drawn)
Result: 6.00 to 6.30

Request: Moving on to the next compound: CC(C)=CC(CCO)C1CC2(N=C(N)N(C)O2)c2cc(-c3cc(F)cc(Cl)c3)ccc2O1 (stereo not drawn)
Result: 5.30 to 6.00

Request: Moving on to the next compound: CN1C(=O)C2(CC3(CCCOC3)Oc3ccc(-c4cccc(F)c4)cc32)N=C1N (stereo not drawn)
Result: 6.00 to 6.30

Request: Moving on to the next compound: CN1C(=O)C2(CC(c3ccc(F)cc3)Oc3ccc(-c4cccc(C#N)c4)cc32)N=C1N (stereo not drawn)
Result: 6.00 to 6.30

Request: Moving on to the next compound: CN1OC2(C[C@H]([C@@H]3CCOC(C)(C)C3)Oc3ccc(-c4cc(F)ccc4F)cc32)N=C1N (stereo partly drawn)
Result: 5.30 to 6.00

Request: Moving on to the next compound: CN1C(=O)[C@@]2(C[C@@]3(CCCOC3)Oc3ccc(-c4cc(C#N)cc(C(F)(F)F)c4)cc32)N=C1N
Result: 6.30 to 7.00

Request: Moving on to the next compound: CN1C(=O)[C@@]2(C[C@]3(CCCOC3)Oc3ccc(-c4cc(CO)ccc4F)cc32)N=C1N
Result: 5.30 to 6.00

Request: Moving on to the next compound: CN1OC2(N=C1N)c1cc(-c3cccc(C#N)c3)ccc1OC1(CCCOC1)C2F (stereo not drawn)
Result: 6.30 to 7.00

Request: Moving on to the next compound: CC(C)=CC(CCO)[C@H]1C[C@@]2(N=C(N)N(C)O2)c2cc(-c3cccc(C(F)(F)F)c3)ccc2O1 (stereo partly drawn)
Result: 5.00 to 5.30

Request: Moving on to the next compound: CC(C)=CC(CCO)C1CC2(N=C(N)N(C)O2)c2cc(-c3cc(F)cc(C#N)c3)ccc2O1 (stereo not drawn)
Result: 5.30 to 6.00

Request: Moving on to the next compound: CN1OC2(CC3(CCc4ccccc4C3)Oc3ccc(-c4cccc(C#N)c4)cc32)N=C1N (stereo not drawn)
Result: 6.30 to 7.00

Request: Moving on to the next compound: CC(C)=CC(CCO)C1CC2(N=C(N)N(C)O2)c2cc(-c3cc(C#N)ccc3C)ccc2O1 (stereo not drawn)
Result: 5.30 to 6.00
